assay remarks: Metabolic stability in human hepatocytes assessed as intrinsic clearance measured per 10^6 cells
Type: ADME, cell-based, Hepatocyte
measurement context: read-out: CLH
Decision: hepatocyte CLint compared against 7 µL/min/1e6 cells; not below it gives y, below it gives n.

> print(dat)
                                   molecule  label
1  Cc1cccnc1-c1ccc(-c2n[nH]c3ncc(-c4ccc5c(c4)CC[C@@H](N4C6COCC4C6)CC5)cc23)cc1      n
2  CN(C)C(=O)c1ccc(-c2n[nH]c3ncc(-c4ccc5c(c4)CC[C@@H](N4C6COCC4C6)CC5)cc23)cc1      n
3  Cn1ccnc1-c1ccc(-c2n[nH]c3ncc(-c4ccc5c(c4)CC[C@@H](N4C6COCC4C6)CC5)cc23)cc1      n
4  c1cc(-c2n[nH]c3ncc(-c4ccc5c(c4)CCC(N4C6COCC4C6)CC5)cc23)ccn1 (racemic)      y
5  Cn1ncnc1-c1ccc(-c2n[nH]c3ncc(-c4ccc5c(c4)CC[C@@H](N4C6COCC4C6)CC5)cc23)cc1      n

Kindly determine if hepatocyte CLint recorded for "O=C1OCCN1c1ccc(-c2n[nH]c3ncc(-c4ccc5c(c4)CC[C@@H](N4C6COCC4C6)CC5)cc23)cc1" is above or exactly 7 µL/min/1e6 cells.
n

Then this molecule: "N#Cc1cccnc1-c1ccc(-c2n[nH]c3ncc(-c4ccc5c(c4)CC[C@@H](N4C6COCC4C6)CC5)cc23)cc1"
n

// same read-out, input: "Cc1cccnc1-c1ccc(-c2n[nH]c3ncc(-c4ccc5c(c4)CC[C@@H](N4C[C@@H]6C[C@H]4CO6)CC5)cc23)cc1"
n

# iterate: "O=S1(=O)CCCN1c1ccc(-c2n[nH]c3ncc(-c4ccc5c(c4)CC[C@@H](N4C6COCC4C6)CC5)cc23)cc1"
n

Same for "COc1cccnc1-c1ccc(-c2n[nH]c3ncc(-c4ccc5c(c4)CC[C@@H](N4C6COCC4C6)CC5)cc23)cc1"
y

Also check "CO[C@H]1C[C@@H](N[C@H]2CCc3ccc(-c4cnc5[nH]nc(-c6ccc(-c7ncccc7C)cc6)c5c4)cc3CC2)C1"
n

Thanks! And "CN(C)S(=O)(=O)c1ccc(-c2n[nH]c3ncc(-c4ccc5c(c4)CC[C@@H](N4C6COCC4C6)CC5)cc23)cc1" ?
y
